Entries annotated with measured pIC50
molecular target: BCR-NTRK3 BaF3 cells (Homo sapiens, UniProt Q16288); construct: fused on or other part: P11274 (Breakpoint cluster region protein); experiment: BaF3 BCR-NTRK3 cell proliferation assay (ATPlite); details: read-out: Inhibition of Cell Proliferation IC50, BCR/BaF3 TrkC
Sequence (Q16288 whole entry, the tested form may be a part): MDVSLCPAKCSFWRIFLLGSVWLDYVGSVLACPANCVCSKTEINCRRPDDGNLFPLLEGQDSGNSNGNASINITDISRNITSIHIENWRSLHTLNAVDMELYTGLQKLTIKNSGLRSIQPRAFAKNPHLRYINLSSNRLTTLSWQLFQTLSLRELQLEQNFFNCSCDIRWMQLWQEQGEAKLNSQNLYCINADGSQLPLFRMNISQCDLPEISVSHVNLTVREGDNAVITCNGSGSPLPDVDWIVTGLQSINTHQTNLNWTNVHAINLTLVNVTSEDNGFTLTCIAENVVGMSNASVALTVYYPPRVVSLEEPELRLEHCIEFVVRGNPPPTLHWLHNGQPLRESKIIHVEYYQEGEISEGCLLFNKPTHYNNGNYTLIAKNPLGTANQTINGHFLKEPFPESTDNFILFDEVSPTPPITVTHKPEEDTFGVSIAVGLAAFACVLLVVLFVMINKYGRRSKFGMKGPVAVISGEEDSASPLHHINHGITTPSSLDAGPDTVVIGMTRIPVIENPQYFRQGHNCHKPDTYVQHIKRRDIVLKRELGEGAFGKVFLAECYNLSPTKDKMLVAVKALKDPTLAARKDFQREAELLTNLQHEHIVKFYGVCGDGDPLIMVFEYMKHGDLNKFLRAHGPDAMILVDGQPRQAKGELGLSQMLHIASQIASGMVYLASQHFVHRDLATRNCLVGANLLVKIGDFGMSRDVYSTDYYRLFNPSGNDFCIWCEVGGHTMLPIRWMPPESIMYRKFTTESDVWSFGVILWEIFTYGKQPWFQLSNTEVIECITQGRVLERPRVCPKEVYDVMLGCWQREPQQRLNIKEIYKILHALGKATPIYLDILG
pIC50: −log10 of the molar value.

{"columns": ["molecule", "pIC50"],
 "data": [
  ["CNc1ncnc2[nH]cc(C(=O)c3ccc(NC4CCC(F)(F)CC4)nc3Cl)c12", "> 7.00"],
  ["Cc1cnc2[nH]cc(Cc3cnc(Nc4cc(C(F)(F)F)n[nH]4)nc3)c2c1", "< 6.00"],
  ["Cc1cnc2[nH]cc(Cc3cnc(Nc4ccc(F)cc4)nc3)c2c1", "< 5.00"],
  ["COc1ccc(Nc2ccc(C(=O)c3c[nH]c4ncnc(NCC5CC5)c34)c(F)n2)cn1", "> 8.00"],
  ["CSc1ccc(Nc2ncc(Cc3c[nH]c4ncc(C)cc34)cn2)cc1", "> 7.00"],
  ["CCc1ccc(Nc2ccc(C(=O)c3c[nH]c4ncnc(NCC(C)C)c34)c(F)n2)cn1", "> 8.00"],
  ["CC1CCC(Nc2ncc(Cc3c[nH]c4ncc(Cl)cc34)cn2)CC1 (centres unmarked)", "< 5.00"],
  ["CCC(C)Nc1ncnc2[nH]cc(C(=O)c3ccc(Nc4ccc(OC)nc4)nc3F)c12 (centres unmarked)", "> 8.00"],
  ["CCOc1ccc(Nc2ccc(C(=O)c3c[nH]c4ncnc(OC)c34)c(F)n2)cn1", "> 7.00"],
  ["COc1ccc(Nc2ccc(C(=O)c3c[nH]c4ncnc(N5CCOCC5)c34)c(F)n2)cn1", "< 6.00"],
  ["CNc1ncnc2[nH]cc(C(=O)c3ccc(NC4CCC(F)(F)CC4)nc3F)c12", "> 8.00"],
  ["CCOc1ncnc2[nH]cc(Cc3ccc(Nc4ccc(OC)nc4)nc3F)c12", "> 8.00"],
  ["Nc1ncnc2[nH]cc(C(=O)c3ccc(NC4CCC(F)(F)CC4)nc3Cl)c12", "> 6.00"],
  ["Cc1cnc2[nH]cc(Cc3cnc(Nc4cc(C5CC5)n[nH]4)nc3)c2c1", "> 6.00"],
  ["Cc1ccc(Nc2ccc(Cc3c[nH]c4ncc(Cl)cc34)c(F)n2)cn1", "> 7.00"],
  ["Clc1cnc2[nH]cc(Cc3cnc(NC4CCCCCC4)nc3)c2c1", "< 5.00"],
  ["CC(C)=CNc1ncnc2[nH]cc(C(=O)c3ccc(NC4CCC(F)(F)CC4)nc3Cl)c12", "< 6.00"]
]}

----------
biological target: BCR-NTRK1 BaF3 cells (Homo sapiens); construct: fused on or other part: P11274 (Breakpoint cluster region protein); experiment: BaF3 BCR-NTRK1 cell proliferation assay (ATPlite); settings: read-out: Inhibition of Cell Proliferation IC50, BCR/BaF3 TrkA
Sequence (P04629 510-781): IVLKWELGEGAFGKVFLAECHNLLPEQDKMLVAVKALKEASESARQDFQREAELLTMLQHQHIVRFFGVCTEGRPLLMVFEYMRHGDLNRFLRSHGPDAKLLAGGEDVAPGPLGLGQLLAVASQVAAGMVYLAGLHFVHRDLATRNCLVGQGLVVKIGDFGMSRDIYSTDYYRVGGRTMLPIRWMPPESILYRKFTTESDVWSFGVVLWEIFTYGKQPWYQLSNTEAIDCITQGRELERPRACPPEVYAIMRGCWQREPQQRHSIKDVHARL
Entries annotated with measured IC50

{"columns": ["sample smiles", "system under test", "IC50"],
 "data": [
  ["CCOc1ccc(Nc2ccc(Cc3c[nH]c4ncnc(OCCOC)c34)c(F)n2)cn1", "BCR-NTRK1 BaF3 cells (Homo sapiens)", "< 100 nM"],
  ["COc1ccc(Nc2ccc(C(=O)c3c[nH]c4ncnc(NC5CCCC5)c34)c(F)n2)cn1", "BCR-NTRK1 BaF3 cells (Homo sapiens)", "< 10 nM"],
  ["O=C(c1ccc(Nc2ccc(C3CC3)nc2)nc1F)c1c[nH]c2ncnc(NCC(F)(F)F)c12", "BCR-NTRK1 BaF3 cells (Homo sapiens)", "< 100 nM"],
  ["COc1cncc(Nc2ccc(C(=O)c3c[nH]c4ncnc(NC5CCCCC5)c34)c(F)n2)c1", "BCR-NTRK1 BaF3 cells (Homo sapiens)", "< 100 nM"]
]}

----------
biological target: BCR-FMS BaF3 cells (Homo sapiens); construct: fused on or other part: P11274 (Breakpoint cluster region protein); experiment: BaF3 BCR-FMS cell proliferation assay (ATPlite); details: read-out: Inhibition of Cell Proliferation IC50, BCR/BaF3 Fms
Sequence (P07333 582-910): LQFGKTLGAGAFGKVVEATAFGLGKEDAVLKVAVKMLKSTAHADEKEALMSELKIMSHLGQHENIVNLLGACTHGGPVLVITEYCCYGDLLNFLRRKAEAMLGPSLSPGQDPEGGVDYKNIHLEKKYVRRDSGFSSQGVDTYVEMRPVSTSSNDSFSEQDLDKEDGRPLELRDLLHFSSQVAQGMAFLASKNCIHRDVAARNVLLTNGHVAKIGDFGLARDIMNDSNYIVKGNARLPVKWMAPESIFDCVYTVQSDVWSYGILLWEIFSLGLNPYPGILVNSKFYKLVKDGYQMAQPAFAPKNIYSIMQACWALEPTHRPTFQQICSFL
pIC50: −log10 of the molar value.

{"columns": ["sample smiles", "pIC50"],
 "data": [
  ["O=C(c1cnc(NC2CCC(F)(F)CC2)c(F)c1)c1c[nH]c2ncnc(NC3CC3)c12", "> 6.00"],
  ["Clc1cnc2[nH]cc(Cc3cnc(NC4CCCC4)nc3)c2c1", "> 6.00"],
  ["COc1ccc(Nc2ccc(Cc3c[nH]c4ncnc(C5CC5)c34)c(F)n2)cn1", "> 8.00"],
  ["Clc1cnc2[nH]cc(Cc3cnc(NC4CC4)nc3)c2c1", "> 6.00"],
  ["CCn1cc(Nc2ccc(C(=O)c3c[nH]c4ncnc(C5CC5)c34)c(F)n2)cn1", "> 7.00"],
  ["Cc1cnc2[nH]cc(Cc3ccc(Nc4ccc(C)nc4)nc3F)c2c1", "> 8.00"],
  ["Clc1cnc2[nH]cc(Cc3cnc(NC4CCCCCC4)nc3)c2c1", "> 6.00"],
  ["CNc1ncnc2[nH]cc(C(=O)c3ccc(Nc4ccc(OC)nc4)nc3F)c12", "> 7.00"]
]}

----------
molecular target: BCR-NTRK1 BaF3 cells (Homo sapiens); construct: fused on or other part: P11274 (Breakpoint cluster region protein); test: BaF3 BCR-NTRK1 cell proliferation assay (ATPlite); details: read-out: Inhibition of Cell Proliferation IC50, BCR/BaF3 TrkA
pIC50: −log10 of the molar value.
parameter: pIC50

{"columns": ["sample smiles", "parameter", "observed measurement"],
 "data": [
  ["CCn1cc(Nc2ccc(Cc3c[nH]c4ncnc(OCCOC)c34)c(F)n2)cn1", "pIC50", "> 6.00"],
  ["Cc1cnc2[nH]cc(Cc3cnc(Nc4cc(-c5ccc(F)cc5)n[nH]4)nc3)c2c1", "pIC50", "> 7.00"],
  ["Cc1cnc2[nH]cc(Cc3ccc(Nc4ccc(C5CC5)nc4)nc3F)c2c1", "pIC50", "> 7.00"],
  ["Fc1cc(Cc2c[nH]c3ncnc(NC4CC4)c23)cnc1NC1CCC(F)(F)CC1", "pIC50", "> 6.00"]
]}

----------
target: BCR-NTRK2 BaF3 cells (Homo sapiens, UniProt Q16620); construct: fused on or other part: P11274 (Breakpoint cluster region protein); experiment: BaF3 BCR-NTRK2 cell proliferation assay (ATPlite); assay type: cell-based; conditions: read-out: Inhibition of Cell Proliferation IC50, BCR/BaF3 TrkB
Sequence (Q16620 538-807): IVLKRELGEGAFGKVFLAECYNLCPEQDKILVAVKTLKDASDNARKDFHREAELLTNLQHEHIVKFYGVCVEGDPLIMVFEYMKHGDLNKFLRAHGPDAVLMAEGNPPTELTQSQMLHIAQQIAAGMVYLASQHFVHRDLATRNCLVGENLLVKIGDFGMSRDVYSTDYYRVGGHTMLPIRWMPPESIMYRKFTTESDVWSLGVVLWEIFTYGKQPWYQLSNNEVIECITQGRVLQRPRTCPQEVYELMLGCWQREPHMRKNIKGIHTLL
parameter: IC50

{"columns": ["compound", "observed measurement"],
 "data": [
  ["CCCNc1ncnc2[nH]cc(C(=O)c3ccc(Nc4cncc(OC)c4)nc3F)c12 [Compound P-4105]", "< 1000 nM"],
  ["CCc1ccc(Nc2ccc(C(=O)c3c[nH]c4ncnc(N)c34)c(F)n2)cn1 [Compound P-4065]", "< 10 nM"],
  ["COc1ccc(Nc2ccc(C(=O)c3c[nH]c4ncc(C)cc34)c(F)n2)cn1 [Compound P-3040]", "< 10 nM"],
  ["CCNc1ncnc2[nH]cc(C(=O)c3ccc(NC4CCC(F)(F)CC4)nc3Cl)c12 [Compound P-4050]", "< 1000 nM"],
  ["CCc1ccc(Nc2ccc(C(=O)c3c[nH]c4ncnc(NC5CCC(F)(F)CC5)c34)c(F)n2)cn1 [Compound P-4096]", "< 10 nM"],
  ["CCOc1ncnc2[nH]cc(Cc3ccc(Nc4ccc(OC)nc4)nc3F)c12 [Compound P-4018]", "< 100 nM"],
  ["CCc1ccc(Nc2ccc(C(=O)c3c[nH]c4ncnc(NCCOC)c34)c(F)n2)cn1 [Compound P-4119]", "< 10 nM"],
  ["Fc1ccccc1Nc1ncc(Cc2c[nH]c3ncc(Cl)cc23)cn1 [Compound P-3014]", "> 10000 nM"],
  ["CNc1ncnc2[nH]cc(C(=O)c3ccc(NC4CCC(F)(F)CC4)nc3)c12 [Compound P-4089]", "< 100 nM"],
  ["COc1ccc(Nc2ccc(C(=O)c3c[nH]c4ncnc(NC(C)C)c34)c(F)n2)cn1 [Compound P-4066]", "< 10 nM"],
  ["CCC(C)Nc1ncnc2[nH]cc(C(=O)c3ccc(Nc4ccc(OC)nc4)nc3F)c12 (stereo not shown) [Compound P-4078]", "< 10 nM"],
  ["CCOc1ccc(Nc2ccc(Cc3c[nH]c4ncc(C)cc34)c(F)n2)cn1 [Compound P-3039]", "< 1000 nM"],
  ["COc1cncc(Nc2ccc(C(=O)c3c[nH]c4ncnc(NC5CCCCC5)c34)c(F)n2)c1 [Compound P-4104]", "< 100 nM"],
  ["COc1ccc(Nc2ccc(C(=O)c3c[nH]c4ncnc(NC5CCC(F)(F)CC5)c34)c(F)n2)cn1 [Compound P-4056]", "< 10 nM"],
  ["CCc1ccc(Nc2ccc(C(=O)c3c[nH]c4ncnc(NC5CCC5)c34)c(F)n2)cn1 [Compound P-4095]", "< 10 nM"],
  ["CCc1ccc(Nc2ccc(C(=O)c3c[nH]c4ncnc(NC)c34)c(F)n2)cn1 [Compound P-4124]", "< 10 nM"]
]}
